Literature Ki values, system: UniProt P07858.
property-name: Ki (µM)

Previously resolved entries follow.
compound	Ki [µM]
O=CC(Cc1ccccc1)NC(=O)[C@H]1CCCN1S(=O)(=O)c1cccc([N+](=O)[O-])c1 (mixture of isomers)	5.45
Cc1ccc(S(=O)(=O)N2CCC[C@@H]2C(=O)NC(Cc2ccccc2)C(=O)C(=O)NCCc2ccccc2)cc1 (mixture of isomers)	6.9
CC(C)C(C(=O)N[C@H](C=O)Cc1ccccc1)C(=O)OCc1ccccc1 (stereo not given in full)	0.02
CC(=O)/C=C/[C@H](CCc1ccccc1)NC(=O)CN1C(=O)[C@@H](COC(=O)Nc2ccc(Cl)cc2C(F)(F)F)N=C(c2ccccc2)c2ccccc21	8.4
CC(C)C[C@H](NC(=O)OCc1cccnc1)C(=O)N[C@@H](CCc1ccccc1)C(=O)CSC(C)(C)C	1.3
O=C(N[C@@H](Cc1ccccc1)C(=O)NC1CC(=O)N(CCc2ccccc2)CC1=O)OCc1ccccc1 (stereo in doubt; 4f)	6.17
O=C(N[C@@H](Cc1ccccc1)C(=O)N[C@H]1CCCN(S(=O)(=O)c2ccccn2)CC1=O)c1cc2ccccc2o1	0.193
NC(=O)C(=O)C(Cc1ccccc1)NC(=O)c1ccccc1/C=C/c1ccc2ccccc2c1 (stereo not given)	0.099
CC(=O)[C@H](CCc1ccccc1)NC(=O)[C@H](CC(C)C)NC(=O)OCc1ccccc1	519
O=C(N[C@H](/C=C/S(=O)(=O)c1ccccc1)CCc1ccccc1)[C@H](Cc1ccccc1)NC(=O)N1CCOCC1	11

(I) CC(C)C[C@H](NC(=O)OCc1ccccc1)C(=O)N[C@@H](Cc1ccccc1)C(=O)CSC(C)(C)C
(II) CCCC[C@H](NC(=O)[C@@H](NC(=O)c1ccc(CN)cc1)C(C)CC)C(=O)CO (stereo not given in full)
(III) Cc1ccc(S(=O)(=O)N2CCC[C@@H]2C(=O)NC(C=O)Cc2ccccc2)cc1 (stereo not given in full)
(IV) CC(C)C[C@H](NC(=O)OCc1ccncc1)C(=O)N[C@@H](Cc1ccccc1)C(=O)CSC(C)(C)C
(V) CC(C)C[C@@H](C(=O)NCC#N)c1cccc(-c2cccc(-c3csc(CN4CCNCC4)n3)c2)c1
Exam item: // ranking: key=Ki, reverse=True The reply should contain the labels ordered as requested.
Marked response: V, III, IV, II, I

---

Literature pKi values, system: Cathepsin B (Homo sapiens, UniProt P07858).
pKi: −log10 of the molar value.
property-name: pKi

compound	property-name	reported-measurement
COc1ccc(C[C@@H]2NC(=O)[C@@H](NC(=O)OCc3ccccc3)Cc3ccc([N+](=O)[O-])c(c3)Oc3ccc(cc3)C[C@@H](C(=O)N[C@H](C=O)CC(C)C)NC2=O)cc1	pKi	4.52

(P) CC(C)C[C@H](NC(=O)OCc1ccccc1)C(=O)NC(Cc1ccccc1)C(=O)C(=O)NCCCn1ccc(N)nc1=O (some centres not stated)
(Q) CCC(NC(=O)[C@H](CC(C)C)NC(=O)OCc1ccccc1)C(=O)C(=O)NCCCn1ccc(N)nc1=O (some centres not stated)
Exam item: // pick larger pKi from pair: P vs Q Indicate your choice by writing its label.
Marked response: P
(P: 6.36, Q: 6.12)

(I) CCC(C)[C@H](NC(=O)c1cccc(C(N)=O)c1)C(=O)N[C@@H](CCc1ccccc1)C(=O)CO (some centres not stated)
(II) CC(C)(C)SCC(=O)[C@H](CCc1ccccc1)NC(=O)[C@H](Cc1ccccc1)NC(=O)OCc1cccnc1
(III) CC(C)N(CCOCc1ccccc1)C(=O)N[C@H](C=O)Cc1ccccc1
Exam item: Sort low-to-high on pKi, please. The reply should contain the labels ordered as requested.
Marked response: III, I, II

(1) N=C(N)NCCC[C@H](NC(=O)[C@H](CS)NC(=O)Cc1ccc(-c2ccccc2)cc1)C(=O)N[C@@H](Cc1c[nH]c2ccccc12)C(=O)NCCc1ccccc1
(2) CC(C)N(C#N)NC(=O)O[C@@H](C)CC1CCCCC1
(3) O=C(CC[C@H]1CCC[C@@H](NC(=O)[C@H](Cc2ccccc2)NC(=O)OCc2ccccc2)C1=O)N[C@@H](Cc1ccccc1)C(=O)O
(4) CCC[C@H](NC(=O)C1(NC(=O)c2ccc(F)cc2)CCCCC1)C(=O)c1nnc(-c2ccco2)o1
(5) CC(C)C[C@H](NC(=O)OCc1ccccc1)C(=O)NC(Cc1ccccc1)C(=O)C(=O)NCCN(C)C (some centres not stated)
Exam item: Sort low-to-high on pKi, please. The reply should contain the labels ordered as requested.
Marked response: 3, 5, 4, 1, 2
(3: 2.96, 5: 3.32, 4: 6.02, 1: 6.25, 2: 8.89)

(a) CS(=O)(=O)N[C@H](COCc1ccccc1)C(=O)N[C@H](C=O)CCCCNS(=O)(=O)c1ccccc1
(b) O=C(NCCc1ccccc1)C(=O)C(Cc1ccccc1)NC(=O)[C@H]1CCCN1S(=O)(=O)c1ccc([N+](=O)[O-])cc1 (mixture of isomers)
Exam item: // pick larger pKi from pair: a vs b Indicate your choice by writing its label.
Marked response: a
(a: 8.40, b: 4.92)

---

Literature pKi values, system: Cathepsin B (Homo sapiens).
pKi: −log10 of the molar value.
property-name: pKi

Previously resolved entries follow.
compound	property-name	reported-measurement
Cc1ccc(S(=O)(=O)N2CSC[C@@H]2C(=O)NC(C=O)Cc2ccccc2)cc1 (some centres undefined)	pKi	6.92
CC(C)C[C@@H](C(=O)NC1CN(C(=O)[C@H](CC(C)C)N(C)C(=O)OCc2ccccc2)CC1=O)N(C)C(=O)OCc1ccccc1 (some centres undefined)	pKi	5.59
COc1ccc(S(=O)(=O)/C=C/[C@H](CCc2ccccc2)NC(=O)CN2C(=O)[C@@H](COC(=O)Nc3ccc(Cl)cc3C(F)(F)F)N=C(c3ccccc3)c3ccccc32)cc1	pKi	5.48

(P) CCC[C@H](NC(=O)C1(NC(=O)c2ccc(OC(F)(F)F)cc2)CCCCC1)C(=O)c1nnc(-c2ccc(OC)cc2)o1
(Q) CC(C)C[C@@H](CN1CC(=O)C(NC(=O)[C@H](CC(C)C)NC(=O)c2ccc3cccnc3c2)C1)NC(=O)OCc1ccccc1 (some centres undefined)
(R) O=C(N[C@@H](Cc1ccc2ccccc2c1)C(=O)N[C@H]1CCCN(S(=O)(=O)c2ccccn2)CC1=O)c1cc2ccccc2o1
(S) CC(C)C[C@H](NC(=O)c1ccc(CN)cc1)C(=O)N[C@@H](CCc1ccccc1)C(=O)CO
Exam item: Sort low-to-high on pKi, please. The reply should contain the labels ordered as requested.
Marked response: P, S, Q, R

(A) CCC[C@H](NC(=O)[C@H](CC(C)C)NCC(F)(F)F)C(=O)c1nnc(-c2ccco2)o1
(B) O=CC(Cc1ccccc1)NC(=O)[C@H]1CCCN1S(=O)(=O)c1ccccc1[N+](=O)[O-] (mixture of isomers)
Exam item: Just tell me: smaller pKi value, A or B ? Indicate your choice by writing its label.
Marked response: A
(A: 4.32, B: 5.34)

(I) O=C(N[C@@H](Cc1ccccc1)C(=O)NC1CC(=O)N(CCCc2ccccc2)CC1=O)OCc1ccccc1 (stereo in doubt; 4e)
(II) CC(C)C[C@H](NC(=O)c1ccc2ccccc2n1)C(=O)NC1COCC1=O (some centres undefined)
(III) O=C(N[C@@H](Cc1ccccc1)C(=O)NC1CC(=O)N(Cc2ccccc2)CC1=O)OCc1ccccc1 (stereo in doubt; 4g)
(IV) CCC[C@H](NC(=O)CCc1ccccc1)C(=O)c1nnc(-c2ccco2)o1
Exam item: // ranking: key=pKi, reverse=True The reply should contain the labels ordered as requested.
Marked response: I, II, III, IV

---

Literature Ki values, system: Cathepsin B (Homo sapiens).
property-name: Ki (µM)

compound	property-name	reported-measurement
CCCC[C@H](NC(=O)OCc1ccccc1)C(=O)c1nnc(-c2ccco2)o1	Ki	34
CCCC(NC(=O)[C@@H]1[C@H]2CCC[C@H]2CN1C(=O)[C@@H](NC(=O)[C@@H](NC(=O)c1cnccn1)C(C)C)C(C)(C)C)C(=O)C(=O)NC1CC1 (stereo not given in full)	Ki	1.6
CC(C)S(=O)(=O)N1CCC[C@@H]1C(=O)NC(C=O)Cc1ccccc1 (mixture of isomers)	Ki	3.5
O=C(CN1C(=O)[C@@H](COC(=O)Nc2ccc(Cl)cc2C(F)(F)F)N=C(c2ccccc2)c2ccccc21)N[C@H](/C=C/S(=O)(=O)c1ccccc1)CCc1ccccc1	Ki	3.1
CCC[C@H](NC(=O)C1(NC(=O)c2ccc(OC(F)(F)F)cc2)CCCCC1)C(=O)c1nnc(-c2cccc(C(F)(F)F)c2)o1	Ki	1.1

(A) O=CC(Cc1ccccc1)NC(=O)[C@H]1CCCN1S(=O)(=O)c1ccc(I)cc1 (mixture of isomers)
(B) CCCC(NC(=O)[C@@H]1C2CCCC2CN1C(=O)[C@@H](NC(=O)[C@@H](NC(=O)c1cnccn1)C1CCCCC1)C(C)(C)C)C(=O)C(=O)N[C@H](C)c1ccccc1 (stereo not given in full)
Exam item: // pick larger Ki from pair: A vs B Indicate your choice by writing its label.
Marked response: B

(P) CC(C)C[C@H](NC(=O)c1cc2ccccc2o1)C(=O)N[C@@H](C)C(=O)CNS(=O)(=O)c1ccccn1
(Q) COC(=O)[C@H](C)NC(=O)[C@H](C)NC(=O)C[C@@H]1O[C@H]1CNC(=O)[C@H](Cc1ccccc1)NC(=O)OCc1ccccc1
Exam item: Just tell me: smaller Ki value, P or Q ? Indicate your choice by writing its label.
Marked response: P
(P: 0.059 µM, Q: 244 µM)

(a) CCC[C@H](NC(=O)C1(NC(=O)OC(C)(C)C)CCCCC1)C(=O)c1nnc(-c2ccco2)o1
(b) COC[C@H](NC(=O)[C@H](CC(=O)NCC(C)(C)C)NS(=O)(=O)c1ccc(C)cc1)C(=O)N[C@@H](CC(C)C)C(=O)c1nnc(-c2ccccc2)o1
Exam item: Just tell me: smaller Ki value, a or b ? Indicate your choice by writing its label.
Marked response: a
